Data origin, for the record: patent US20170119776A1

- experimentalTarget: MMP-12 of the mouse (Mus musculus, UniProt P34960)
- Sequence (P34960 110-473): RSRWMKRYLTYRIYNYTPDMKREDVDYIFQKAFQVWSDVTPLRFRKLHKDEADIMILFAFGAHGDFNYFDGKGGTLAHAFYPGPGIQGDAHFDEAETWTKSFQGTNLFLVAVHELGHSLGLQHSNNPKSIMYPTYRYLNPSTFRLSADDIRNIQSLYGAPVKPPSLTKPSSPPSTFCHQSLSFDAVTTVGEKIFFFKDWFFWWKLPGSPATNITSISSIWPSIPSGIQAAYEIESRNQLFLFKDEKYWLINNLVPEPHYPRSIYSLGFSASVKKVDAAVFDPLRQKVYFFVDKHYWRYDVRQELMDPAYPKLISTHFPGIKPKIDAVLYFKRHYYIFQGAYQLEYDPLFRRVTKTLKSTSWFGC
observedProperty: IC50 (nM)

1. CCCCCOc1ccc(C(=O)CC(CCn2nnc3ccccc3c2=O)C(=O)O)cc1 (single isomer, unassigned; enantiomer 1) [Comparative Example B-2]
2. O=C(O)[C@@H]1[C@@H](Cn2nnc3ccccc3c2=O)CC[C@H]1C(=O)c1ccc(-c2ccc(Cl)cc2)cc1 (single isomer, unassigned; enantiomer 2)
3. CCCCCOc1ccc(C(=O)CC(CCn2nnc3ccccc3c2=O)C(=O)O)cc1 (racemic) [Comparative Example B-1]
Rank the 3 molecules: largest IC50 first, smallest last. Your task in answering is to list the labels in the requested order.
3, 1, 2
